ASSAY SYSTEM: human recombinant ALDH2 enzyme (Homo sapiens, UniProt P05091)
Construct: purchased Abcam ab87415
Sequence (P05091 18-517): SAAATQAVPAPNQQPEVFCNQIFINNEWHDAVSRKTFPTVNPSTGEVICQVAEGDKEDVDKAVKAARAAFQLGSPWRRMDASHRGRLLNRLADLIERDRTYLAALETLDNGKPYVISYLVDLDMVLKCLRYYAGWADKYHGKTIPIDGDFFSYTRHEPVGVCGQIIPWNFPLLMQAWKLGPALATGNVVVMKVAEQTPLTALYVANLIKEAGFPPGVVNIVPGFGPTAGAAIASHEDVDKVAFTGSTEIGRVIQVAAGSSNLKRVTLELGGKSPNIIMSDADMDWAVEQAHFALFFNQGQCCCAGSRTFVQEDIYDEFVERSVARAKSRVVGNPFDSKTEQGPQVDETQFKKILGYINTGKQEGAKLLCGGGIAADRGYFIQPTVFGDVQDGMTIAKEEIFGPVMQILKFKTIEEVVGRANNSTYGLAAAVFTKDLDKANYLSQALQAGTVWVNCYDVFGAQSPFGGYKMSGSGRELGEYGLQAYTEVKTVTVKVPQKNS
ASSAY NOTES: Test Example 1-2: ALDH2 activation effect (acetaldehyde oxidation rate, PicoProbe kit)
Format: biochemical
REPORTED CONDITIONS: test compound 10 μM; ALDH2 1 μg/mL; 60 min measurement
Consider the following molecules; for each one, report its acetaldehyde oxidation rate (no test compound = 100%).
Numbers only, in %.

O=C(NCc1ccc2c(c1)OCO2)c1c(Cl)cccc1Cl [Comparative Example 1, reference compound]: 220

Record acetaldehyde oxidation rate (no test compound = 100%) for all entries; do not skip any.
1. O=C(NCc1ccc(OC(F)F)nc1)c1cc(-c2ncccc2CO)ccc1F
2. COc1ncc(CNC(=O)c2cc(-c3ncccc3[C@@H](C)O)ccc2F)cc1F (single isomer, unassigned) [Example 4]
3. CCOc1ncc(CNC(=O)c2cc(-c3ncccc3CO)ccc2F)cc1F
4. O=C(NCc1cnc(OC2CC2)c(F)c1)c1cc(-c2ncccc2CO)ccc1F
5. COc1ncc(CNC(=O)c2cc(-c3ncccc3[C@@H](C)O)ccc2F)cc1F (single isomer, unassigned) [Example 5]

1: 125; 2: 133; 3: 331; 4: 182; 5: 122

Could you share which acetaldehyde oxidation rate (no test compound = 100%) value was measured for `CC(C)Oc1ncc(CNC(=O)c2cc(-c3ncccc3CO)ccc2F)cc1F` ?
154

###

ASSAY SYSTEM: human recombinant ALDH2 enzyme (Homo sapiens, UniProt P05091)
Construct: purchased Abcam ab87415
ASSAY NOTES: Test Example 1-1: ALDH2 activation effect (acetaldehyde oxidation rate, PicoProbe kit)
Type: biochemical
REPORTED CONDITIONS: test compound 30 μM; ALDH2 2 μg/mL; 180 min measurement
READOUT TYPE: acetaldehyde oxidation rate (no test compound = 100%)

Reference set, count: 3
COc1ccc(CNC(=O)c2cc(-c3ncccc3CO)ccc2F)cn1: 180%
COc1ncc(CNC(=O)c2cc(-c3ncccc3CO)ccc2F)cc1F: 226%
O=C(NCc1ccc2c(c1)OCO2)c1c(Cl)cccc1Cl [Comparative Example 1, reference compound]: 225%

Please look at the following molecule next.
Notebook entry, human recombinant ALDH2 enzyme (Homo sapiens, UniProt P05091) assay: acetaldehyde oxidation rate (no test compound = 100%) of `COCc1ccc(CNC(=O)c2cc(-c3ncccc3CO)ccc2F)cn1` = ?
130%

###

ASSAY NOTES: Test Example 3: Metabolic stability with human hepatic microsomes
Type: in vitro ADME
REPORTED CONDITIONS: human hepatic microsomes 0.1 mg protein/mL, 0.1 μmol/L test compound, after 30 minutes, 37° C.
READOUT TYPE: Residual rate (%) of unchanged form

Below are worked cases with known answers.
COc1ccc(CNC(=O)c2cc(-c3ncccc3CO)ccc2F)cn1: >99%
CC(C)Oc1ncc(CNC(=O)c2cc(-c3ncccc3CO)ccc2F)cc1F: >99%

Please report the recorded Residual rate (%) of unchanged form for COc1ncc(CNC(=O)c2cc(-c3ncccc3[C@@H](C)O)ccc2F)cc1F (single isomer, unassigned) [Example 4] .
>99%
